assay.protocol: amyloid nucleation score (Sup35N fusion, yeast selection) (log enrichment); library NNK3; higher = more nucleation; inactive = no reads after selection;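 also: zero at mode of non-aggregating sequences after 7 days selection at 30°C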
measured.attribute: amyloid nucleation score

{"substance": "YRAFTFIGCLNGLTNQHFFY", "amyloid nucleation score": 2.4}
{"substance": "YNGFSLIRFILFAHG", "amyloid nucleation score": "inactive"}
{"substance": "IAEDIRARPSVWDLMRSSAI", "amyloid nucleation score": "inactive"}
{"substance": "WLCCNKTETPQSTRRWQEDD", "amyloid nucleation score": "inactive"}
{"substance": "MAQIRATIFMMMSANVDRYM", "amyloid nucleation score": "inactive"}
{"substance": "SCHFYTML", "amyloid nucleation score": 0.237}

For this substance ( "YFSFFQRVLWYRCAASFNLQ" ), measured amyloid nucleation score is -0.106

Sample "ITIMSDQETSHVWLVDRTLP" ; amyloid nucleation score observed: 0.298

Documented amyloid nucleation score of "SVDWYNFECSIASPF" : inactive

amyloid nucleation score recorded for this substance, "WSGCMWSCARGYGSFPSGPL" , is inactive

Per the record, "AAYGELL" has amyloid nucleation score of inactive

amyloid nucleation score measured on "LIKSSRLCLNRWEWAAGSGM" = inactive

Measured amyloid nucleation score of "MRVYFMWATTWLA" : inactive

* * *

assay.protocol: amyloid nucleation score (Sup35N fusion, yeast selection) (log enrichment); library NNK2; higher = more nucleation; inactive = no reads after selection
measured.attribute: amyloid nucleation score
Please reply with the value in numeric form only.

{"sequence.text": "RIVLLLNVYNTREM", "amyloid nucleation score": 5.04}
{"sequence.text": "QHVGDSWMSSVNLGVLRVRL", "amyloid nucleation score": 0.055}
{"sequence.text": "GHIQLRTVYGV", "amyloid nucleation score": 1.2}
{"sequence.text": "FLCVTISLDNSVACLPLRYS", "amyloid nucleation score": 0.532}
{"sequence.text": "TSRPMALQGYSGNSDDVTYV", "amyloid nucleation score": 0.445}
{"sequence.text": "YTMMRFGPPPFETFVVKYGL", "amyloid nucleation score": 1.42}
{"sequence.text": "CYWWDWVLY", "amyloid nucleation score": -0.032}
{"sequence.text": "DFSMIGSEKVAPGKNPDASL", "amyloid nucleation score": 0.22}

For reference, reported amyloid nucleation score for "YLAFSMEHAGCLHHRVSGIM" stands at 5.46

get_value(item= "FGNRRSCHDIRSWIDRYLVR" , readout=amyloid nucleation score) returns 1.69

* * *

assay.protocol: amyloid nucleation score (Sup35N fusion, yeast selection) (log enrichment); library NNK1; higher = more nucleation; inactive = no reads after selection
Respond with rule met for amyloid nucleation score values of 0.2 and above, rule not met for values below.

Solved cases below.
{"substance": "ETLAFVLRFRNREDFCGGMV", "class.assignment": "rule met"}
{"substance": "RVNTCMSRGRA", "class.assignment": "rule not met"}
{"substance": "DCGRWNRKRPNSVLGVYL", "class.assignment": "rule met"}
{"substance": "NDVTVID", "class.assignment": "rule met"}
{"substance": "NLTVCVQCNAAYCNYLSHRD", "class.assignment": "rule met"}

Prompt line: Given "FRRMVTVNEAWHHRKAGSAN" , state whether its amyloid nucleation score is at least 0.2.
Response line: rule met

Prompt line: Is it the case that "GSPMFLRIYLETYLPTYELS" has amyloid nucleation score reaching or exceeding 0.2?
Response line: rule met

Prompt line: Form field: amyloid nucleation score at least 0.2? Entry: "VRLMQIWGV"
Response line: rule not met

Prompt line: Can "NSRGAQVCDICSIRMFNCCP" be said to have amyloid nucleation score at or above 0.2?
Response line: rule met

Prompt line: # bool: amyloid nucleation score of "FCPNHHNCVISCEWHSGALR" >= 0.2
Response line: rule met

Prompt line: Form field: amyloid nucleation score at least 0.2? Entry: "TCGLHQPFLGLFVSSSSIMT"
Response line: rule not met

Prompt line: For this substance, is measured amyloid nucleation score 0.2 or higher? "RLGHDRIFSIRNSQS"
Response line: rule not met

Prompt line: Entry "INIAMVMPLDGKLIQIDDTC" : is its amyloid nucleation score no less than 0.2?
Response line: rule not met

Prompt line: Threshold query (amyloid nucleation score >= 0.2) on "ALLIAY"
Response line: rule not met

Prompt line: Threshold query (amyloid nucleation score >= 0.2) on "LSFCDTQRMWSSDG"
Response line: rule met

Prompt line: For this substance, is measured amyloid nucleation score 0.2 or higher? "MSCPRGILGSAIWTYSIGHS"
Response line: rule not met

Prompt line: Reported amyloid nucleation score reaches at least 0.2 for "WIRHSNNICMM" ?
Response line: rule met

Prompt line: Record "AFPRARGYMG" ; criterion: amyloid nucleation score no lower than 0.2. Met?
Response line: rule not met

* * *

assay.protocol: amyloid nucleation score (Sup35N fusion, yeast selection) (log enrichment); library NNK3; higher = more nucleation; inactive = no reads after selection
measured.attribute: amyloid nucleation score

{"substance": "LNYMSDFYLLLSERTCVYYQ", "amyloid nucleation score": 0.754}
{"substance": "VRPFPFTWSSSNKEV", "amyloid nucleation score": "inactive"}
{"substance": "AVATCP", "amyloid nucleation score": "inactive"}
{"substance": "LLLRLLAWYMMVS", "amyloid nucleation score": "inactive"}
{"substance": "SSNESGLSFGSEFHMLGWHG", "amyloid nucleation score": 0.075}

Consider "IFLNLLSRGFGLGRELKCRC" . Its measured amyloid nucleation score is inactive

For this substance ( "YLTCVVKRTVH" ), measured amyloid nucleation score is inactive

In plain terms, "NRNYVGPWTLKMGLVC" has a documented amyloid nucleation score of inactive

Per the records, this substance ( "CYRLQAFNARGTERTDAVYL" ) has amyloid nucleation score equal to inactive

* * *

assay.protocol: amyloid nucleation score (Sup35N fusion, yeast selection) (log enrichment); library NNK3; higher = more nucleation; inactive = no reads after selection
measured.attribute: amyloid nucleation score

Worked cases, amyloid nucleation score given:
{"sequence.text": "YQLFWRLALFCPVYGCVYLM", "amyloid nucleation score": -0.027}
{"sequence.text": "AYLCGANINL", "amyloid nucleation score": "inactive"}
{"sequence.text": "GSGRNLSVLVYRLWVDGPTG", "amyloid nucleation score": "inactive"}
{"sequence.text": "TRCTGSYNNYG", "amyloid nucleation score": "inactive"}
{"sequence.text": "GVVSSSPMCVNSDREVVEKT", "amyloid nucleation score": "inactive"}
{"sequence.text": "FNSILIVSLHLFSGFDSMR", "amyloid nucleation score": 1.86}
{"sequence.text": "VDVSRTFALCHRDLPMMP", "amyloid nucleation score": "inactive"}
{"sequence.text": "IMCSGFFDTVKFGWSLLSFS", "amyloid nucleation score": 0.521}
{"sequence.text": "GFWWVTRPSTPARLSSMSPQ", "amyloid nucleation score": "inactive"}
{"sequence.text": "FCMMKRSFCPDLNKLATDLV", "amyloid nucleation score": "inactive"}

The recorded amyloid nucleation score for entry "WLSFFRWR" equals inactive

// amyloid nucleation score lookup, sequence = "GSFSCWYCEVVNVV" , result: inactive

Entry "SRVYAKGRKNTSQFCSGGYS" — recorded amyloid nucleation score = inactive

So for "SNALYCPWHWLIHQVV" , the logged amyloid nucleation score turned out to be inactive

Notebook: "FFLIDYIYWVGIFNYSLILV" , amyloid nucleation score read as inactive

Consider "RSSFVWTSRHFVV" . Its measured amyloid nucleation score is inactive

Measured amyloid nucleation score, "YATACGMILQKVVGKLTLLA" : -0.395

The sequence "ELIAIRRSNFHKKFLLNLYC" showed amyloid nucleation score equal to inactive

Sure, the documented amyloid nucleation score for "LFGTFYPFSTTRFNVVKPDG" is inactive

# sequence "FIIIVDYSFMPGSRVCMFSW" ; its amyloid nucleation score = inactive

* * *

assay.protocol: amyloid nucleation score (Sup35N fusion, yeast selection) (log enrichment); library NNK3; higher = more nucleation; inactive = no reads after selection
measured.attribute: amyloid nucleation score

{"substance": "VNRNFILSSLVH", "amyloid nucleation score": "inactive"}
{"substance": "CRTSHSWVMYWLRREMCY", "amyloid nucleation score": "inactive"}
{"substance": "YRDRFAKSSYKSPKMYQYGS", "amyloid nucleation score": "inactive"}
{"substance": "KVLASCLSHFVDPNLEVSFH", "amyloid nucleation score": "inactive"}
{"substance": "LNVTLIMNRRLFMGTFHLW", "amyloid nucleation score": "inactive"}

For "MLVVWLFMWFIHINKRWDGA" the substance record lists amyloid nucleation score as inactive

Measured amyloid nucleation score, "WLGPYVLHSSAGSGMVDNGT" : inactive

# amyloid nucleation score of "MHATIMVVDRESFHGLGWKS" = inactive

# substance "PLHSWKQCALRRVSSNTSSG" ; its amyloid nucleation score = 1.75

* * *

assay.protocol: amyloid nucleation score (Sup35N fusion, yeast selection) (log enrichment); library NNK2; higher = more nucleation; inactive = no reads after selection
measured.attribute: amyloid nucleation score
Write the number on its own, no unit after it.

// below: answered substances
{"substance": "GYCKVGCFHLRYGSACCVRM", "measured.attribute": "amyloid nucleation score", "assay.value": 0.511}
{"substance": "GVTFNADASTFRDACMARLG", "measured.attribute": "amyloid nucleation score", "assay.value": 0.752}
{"substance": "RTGHTINFVEQPMHTVPMWH", "measured.attribute": "amyloid nucleation score", "assay.value": 5.08}
{"substance": "DFMRDFWKDSDNQEVFLLPI", "measured.attribute": "amyloid nucleation score", "assay.value": -0.885}
{"substance": "MGCYFSSLSTTHKGAVDVQL", "measured.attribute": "amyloid nucleation score", "assay.value": 0.13}

Memo: "SQVSHLRLDVPVAEI" , reported amyloid nucleation score: 4.04

get_value(item= "LYPCNLELVQQHFLVMTNLG" , readout=amyloid nucleation score) returns -0.034

The substance listed as "KRKISDSSPRDRWVALLKKL" has a reported amyloid nucleation score of 2.15

amyloid nucleation score for "YHWIIIRVA" is -0.601
